# assay.target: CCK receptor (pancreas) (Rattus norvegicus, UniProt P30551)
# Construct: The whole pancreas of a male Sprague-Dawley rat; from tissue; host or cells: whole pancreas of male Sprague-Dawley rat, washed membrane homogenate
# Sequence (P30551 whole entry): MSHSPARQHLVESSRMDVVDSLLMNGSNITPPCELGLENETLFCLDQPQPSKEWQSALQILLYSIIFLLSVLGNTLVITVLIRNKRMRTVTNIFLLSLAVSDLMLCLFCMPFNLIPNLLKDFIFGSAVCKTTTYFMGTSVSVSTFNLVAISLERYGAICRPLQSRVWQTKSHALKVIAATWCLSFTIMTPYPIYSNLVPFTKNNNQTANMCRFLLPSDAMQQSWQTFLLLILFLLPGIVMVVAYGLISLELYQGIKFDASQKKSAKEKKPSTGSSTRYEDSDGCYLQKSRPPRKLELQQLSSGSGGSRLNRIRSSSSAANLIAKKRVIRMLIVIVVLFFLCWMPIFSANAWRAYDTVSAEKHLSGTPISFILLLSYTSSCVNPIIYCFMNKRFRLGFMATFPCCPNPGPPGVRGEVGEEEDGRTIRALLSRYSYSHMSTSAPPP
# experiment.notes: CCK receptor binding (pancreas) method
# Parameters: species or system Sprague-Dawley rat
# condition.context: rat pancreas membranes, 37° C., 30 minutes; read-out: I-CCK-8 Pancreas IC50
endpoint: IC50 (µM)

I: CC(C)C[C@@H](NC(=O)OC(C)(C)C)C(=O)N1CC(C[C@@H]2NC(=O)c3ccccc3N3C(=O)c4ccccc4NC23)c2ccccc21 (single isomer, unassigned; isomer 2) [Example 9]
II: CC(C)C[C@@H](NC(=O)OC(C)(C)C)C(=O)N1CC(C[C@@H]2NC(=O)c3ccccc3N3C(=O)c4ccccc4NC23)c2ccccc21 (single isomer, unassigned; isomer 1) [Example 8]
III: CC(C)C[C@H](NC(=O)OC(C)(C)C)C(=O)N1CC(C[C@@H]2NC(=O)c3ccccc3-n3c2nc2ccccc2c3=O)c2ccccc21 (some centres unmarked) [Example 4, hemihydrate]
Enquiry: List items by IC50 in falling order. Answer with the labels in sequence, matching the requested order.
Return: II, I, III
